# Lookup of reported IC50 keyed by entry
biological target: NANOLUC® enzyme (Oplophorus gracilirostris, UniProt Q9GV45, A31E/A60N/A81I/F95D/I117V/K70R/L54V/L99Q/M102K/N193R/P142E/Q151K/Q38R/Q45L/V71I/Y165I); assay: Inhibitor IC50 determination (NANOLUC enzyme, furimazine); type: biochemical; conditions: IC50 (uM), 0.4 ng/ml NANOLUC enzyme, final furimazine 10 uM (at Km)
Sequence (Q9GV45 28-196 with tags or gaps with the stated changes limits assumed): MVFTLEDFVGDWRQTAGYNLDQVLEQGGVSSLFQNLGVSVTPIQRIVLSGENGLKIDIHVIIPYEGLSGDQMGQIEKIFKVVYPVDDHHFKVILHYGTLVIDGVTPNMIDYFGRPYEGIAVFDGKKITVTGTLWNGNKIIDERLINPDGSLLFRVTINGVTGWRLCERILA
Property Name: IC50 (µM)

INSERT INTO results (compound, measured_value) VALUES
  ('CCN(C(=O)Cn1c(C(=O)N[C@H]2CC[C@H](C(=O)OC)CC2)cc2sccc21)c1cccc(N(C)C)c1 [JRW-0478]', 0.065),
  ('CCN(C(=O)Cn1c(C(=O)N[C@H]2CC[C@H](C(=O)OC)CC2)cc2sccc21)c1cccc(CC(C)C)c1 [JRW-0508]', 0.027),
  ('CCN(C(=O)Cn1c(C(=O)OC)cc2sccc21)c1cccc(C)c1 [JRW-0004]', 1.1),
  ('CCN(C(=O)Cn1cccc1C(=O)N[C@H]1CC[C@H](C(=O)OC)CC1)c1cccc(C)c1 [JRW-0456]', 7.4),
  ('CCN(C(=O)Cn1c(C(=O)N[C@H]2CC[C@H](C(=O)OC)CC2)cc2sccc21)c1cccc(C(C)C)c1 [JRW-0460]', 0.12),
  ('CCN(C(=O)Cn1c(C(=O)NC2CCCCC2)cc2sccc21)c1cccc(C)c1 [JRW-0006]', 0.26),
  ('CCc1cccc(N(CC)C(=O)Cn2c(C(=O)N[C@H]3CC[C@H](C(=O)OC)CC3)cc3sccc32)c1 [JRW-0326]', 0.0039),
  ('CCN(C(=O)Cn1c(C(=O)N[C@H]2CC[C@H](C(=O)OC)CC2)cc2occc21)c1cccc(C)c1 [JRW-360]', 0.61);

###

target: NANOLUC® enzyme (Oplophorus gracilirostris, UniProt Q9GV45, A31E/A60N/A81I/F95D/I117V/K70R/L54V/L99Q/M102K/N193R/P142E/Q151K/Q38R/Q45L/V71I/Y165I); assay: Inhibitor IC50 determination (NANOLUC enzyme, furimazine); format: biochemical; conditions: IC50 (uM), 0.4 ng/ml NANOLUC enzyme, final furimazine 10 uM (at Km)
Hi! Could you tag entries with IC50 below 0.3 µM as Criterion met, and those at or above as Criterion not met? Much appreciated.

INSERT INTO results (smiles_code, category) VALUES
  ('CCCCNC(=O)[C@H]1CC[C@H](NC(=O)c2cc3sccc3n2CC(=O)N(CC)c2cccc(C)c2)CC1', 'Criterion not met'),
  ('CCc1cccc(N(CC)C(=O)Cn2c(C(=O)N[C@H]3CC[C@H](C(=O)OC)CC3)cc3ccccc32)c1', 'Criterion met'),
  ('CCN(C(=O)Cn1c(C(=O)N[C@H]2CC[C@H](C(=O)NCCCC(=O)O)CC2)cc2sccc21)c1cccc(C)c1', 'Criterion not met'),
  ('CCN(C(=O)Cn1c(C(=O)N[C@H]2CC[C@H](C(=O)NCCCCCCNC(=O)[C@H](CC(=O)O)NC(=O)[C@H](CC(=O)O)NC(=O)[C@H](CC(=O)O)NC(C)=O)CC2)cc2sccc21)c1cccc(C)c1', 'Criterion met'),
  ('CCN(C(=O)Cn1c(C(=O)N[C@H]2CC[C@H](C(=O)NCCCCCC(=O)OC)CC2)cc2sccc21)c1cccc(C)c1', 'Criterion met'),
  ('CCN(C(=O)Cn1c(C(=O)NCCCCCCCC(=O)O)cc2sccc21)c1cccc(C)c1', 'Criterion not met');

###

Measured log10 of IC50 by item
biological target: NANOLUC® enzyme (Oplophorus gracilirostris, UniProt Q9GV45, A31E/A60N/A81I/F95D/I117V/K70R/L54V/L99Q/M102K/N193R/P142E/Q151K/Q38R/Q45L/V71I/Y165I); assay: Inhibitor IC50 determination (NANOLUC enzyme, furimazine); format: biochemical; settings: IC50 (uM), 0.4 ng/ml NANOLUC enzyme, final furimazine 10 uM (at Km)
Property Name: log10 of IC50 (log10 of the value in µM)

INSERT INTO results (smiles_code, measured_value) VALUES
  ('CCN(C(=O)Cn1c(C(=O)N[C@H]2CC[C@H](C(=O)OC)CC2)cc2sccc21)c1cccc(C)c1', -0.85),
  ('CCN(C(=O)Cn1c(C(=O)NC2CCN(C(=O)CCCCC(=O)O)CC2)cc2sccc21)c1cccc(C)c1', -0.09),
  ('CCN(C(=O)Cn1c(C(=O)N[C@H]2CC[C@H](C(=O)OC)CC2)cc2sccc21)c1cccc(CBr)c1', -2.74),
  ('CCc1cccc(N(CC)C(=O)Cn2c(C(=O)N[C@H]3CC[C@H](C(=O)NCCCCCCO)CC3)cc3sccc32)c1', -2.68),
  ('CCCCCCNC(=O)[C@H]1CC[C@H](NC(=O)c2cc3sccc3n2CC(=O)N(CC)c2cccc(C)c2)CC1', -0.89),
  ('CCN(C(=O)Cn1c(C(=O)N[C@H]2CC[C@H](C(=O)OC)CC2)cc2sccc21)c1cccc(OC)c1', -0.96),
  ('CCN(C(=O)Cn1c(C(=O)N[C@H]2CC[C@@H](C(=O)NCCCCCC(=O)O)CC2)cc2sccc21)c1cccc(C)c1', -0.62);

###

# maps each entry to its IC50
biological target: NANOLUC® enzyme (Oplophorus gracilirostris, UniProt Q9GV45, A31E/A60N/A81I/F95D/I117V/K70R/L54V/L99Q/M102K/N193R/P142E/Q151K/Q38R/Q45L/V71I/Y165I); assay: Inhibitor IC50 determination (NANOLUC enzyme, furimazine); assay type: biochemical; conditions: IC50 (uM), 0.4 ng/ml NANOLUC enzyme, final furimazine 10 uM (at Km)
Property Name: IC50 (µM)

INSERT INTO measurements (smiles_code, measured_value) VALUES
  ('CCN(C(=O)Cn1c(C(=O)N2CCCCC2)cc2sccc21)c1cccc(C)c1', 2.7),
  ('CCN(C(=O)Cn1c(C(=O)N[C@H]2CC[C@@H](C(=O)OC)CC2)cc2sccc21)c1cccc(C)c1', 0.2),
  ('CCN(C(=O)Cn1c(C(=O)O)cc2sccc21)c1cccc(C)c1', 16.4),
  ('Cc1cccc(NC(=O)Cn2c(C(=O)NC3CCCCC3)cc3sccc32)c1', 19.4),
  ('CCN(C(=O)Cn1c(C(=O)N[C@H]2CC[C@H](C(=O)O)CC2)cc2sccc21)c1cccc(C)c1', 0.059),
  ('CCN(C(=O)Cn1c(C(=O)NC2CCCC2)cc2sccc21)c1cccc(C)c1', 0.54);

###

biological target: NANOLUC® enzyme (Oplophorus gracilirostris, UniProt Q9GV45, A31E/A60N/A81I/F95D/I117V/K70R/L54V/L99Q/M102K/N193R/P142E/Q151K/Q38R/Q45L/V71I/Y165I); assay: Inhibitor IC50 determination (NANOLUC enzyme, furimazine); assay type: biochemical; settings: IC50 (uM), 0.4 ng/ml NANOLUC enzyme, final furimazine 10 uM (at Km)
Decision: IC50 beneath 0.8 µM gives 1; IC50 meeting or exceeding 0.8 µM gives -1.

INSERT INTO assay_data (compound, category) VALUES
  ('CCN(C(=O)Cn1c(C(=O)N[C@H]2CC[C@H](C(=O)NCCCCCCS(=O)(=O)[O-])CC2)cc2sccc21)c1cccc(C)c1.[Na+] [JRW-0344]', 1),
  ('CCN(C(=O)Cn1c(C(=O)N[C@H]2CC[C@H](C(=O)NCCCCCCCC(=O)O)CC2)cc2sccc21)c1cccc(C)c1 [JRW-0188]', 1),
  ('CCN(C(=O)Cn1c(C(=O)N[C@H]2CC[C@H](C(=O)OC)CC2)cc2sccc21)c1ccccc1C [JRW-0330]', 1),
  ('CCN(C(=O)Cn1c(C(=O)N[C@H]2CC[C@H](C(=O)NCCO)CC2)cc2sccc21)c1cccc(C)c1 [JRW-0043]', -1),
  ('CCc1cccc(N(CC)C(=O)Cn2c(C(=O)N[C@H]3CC[C@H](C(=O)NCCCCCCO)CC3)cc3ccccc32)c1 [JRW-0430]', 1),
  ('CCN(C(=O)Cn1c(C(=O)N[C@H]2CC[C@H](C(=O)OC)CC2)cc2sccc21)c1ccc(C)cc1 [JRW-0334]', -1),
  ('COC(=O)[C@H]1CC[C@H](NC(=O)c2cc3sccc3n2CC(=O)N2CCCc3cc(C)ccc32)CC1 [JRW-0331]', -1);

###

biological target: NANOLUC® enzyme (Oplophorus gracilirostris, UniProt Q9GV45, A31E/A60N/A81I/F95D/I117V/K70R/L54V/L99Q/M102K/N193R/P142E/Q151K/Q38R/Q45L/V71I/Y165I); test: Inhibitor IC50 determination (NANOLUC enzyme, furimazine); assay type: biochemical; conditions: IC50 (uM), 0.4 ng/ml NANOLUC enzyme, final furimazine 10 uM (at Km)
Known IC50 of a selection of compounds
Property Name: IC50 (µM)

INSERT INTO measurements (smiles_code, measured_value) VALUES
  ('CCN(C(=O)Cn1c(C(=O)N[C@H]2CC[C@H](C(=O)OC)CC2)cc2ccsc21)c1cccc(C)c1', 0.71),
  ('COCCOCCN(C(=O)Cn1c(C(=O)NC2CCCCC2)cc2sccc21)c1cccc(C)c1', 10.1),
  ('CCN(C(=O)Cn1c(C(=O)NC[C@H]2CC[C@H](C(=O)NCCCCCC(=O)O)CC2)cc2sccc21)c1cccc(C)c1', 4.3),
  ('CCc1cccc(N(CC)C(=O)Cn2c(C(=O)N[C@H]3CC[C@H](C(=O)NCCCCCCS(=O)(=O)O)CC3)cc3sccc32)c1', 0.0031);
